studySystem: glucagon receptor (GCGR), primary cAMP assay cell line (human, UniProt P47871 26-477)
Sequence (P47871 26-477): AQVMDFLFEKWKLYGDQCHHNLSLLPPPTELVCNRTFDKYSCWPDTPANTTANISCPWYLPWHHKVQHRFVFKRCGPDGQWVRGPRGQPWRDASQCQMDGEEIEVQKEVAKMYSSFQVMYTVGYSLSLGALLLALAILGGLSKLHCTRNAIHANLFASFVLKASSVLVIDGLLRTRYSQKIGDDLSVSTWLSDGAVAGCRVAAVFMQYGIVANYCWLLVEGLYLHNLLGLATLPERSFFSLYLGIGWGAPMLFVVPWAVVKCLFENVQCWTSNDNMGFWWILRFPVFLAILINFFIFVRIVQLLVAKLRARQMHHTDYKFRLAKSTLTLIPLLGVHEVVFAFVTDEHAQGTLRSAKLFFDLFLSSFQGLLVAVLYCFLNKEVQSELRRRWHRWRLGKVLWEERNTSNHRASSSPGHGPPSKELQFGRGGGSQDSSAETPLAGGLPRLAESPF
protocolDescription: cell-based or functional assay
Starred links: 1 amine or outer side, 2 acyl side, 3 side chain; linkers in the order of their positions; H or OH if unused. Non-standard residues stand in square brackets, D forms with d. Groups on a side chain read outwards from the residue. Primed or numbered codes have the meaning given here. No end group written: not given here. *: point of attachment. γGlu = O=C(O)[C@H](CCC(=O)[*:2])N[*:1]; αMeF = C[C@](N)(Cc1ccccc1)C(=O)O; αMeK = C[C@](N)(CCCCN)C(=O)O; Lauroyl = CCCCCCCCCCCC(=O)*; αMeS = C[C@](N)(CO)C(=O)O; PEG2′ = not defined here; Aib = CC(C)(N)C(=O)O
Measured cAMP Primary assay EC50, n2 of individual entries
Please give the number followed by its unit.

Record excerpt, results attached:
1. H[Aib]EGS[αMeF]TSDV[αMeS]SK([PEG2′-PEG2′-γGlu-Lauroyl])LEGK([PEG2′-PEG2′-γGlu-Lauroyl])AA[αMeK]EFIAFK([PEG2′-PEG2′-γGlu-Lauroyl])VEGG-NH2 [SEQ ID NO: 480]
20 nM
2. H[Aib]EGS[αMeF]TSDV[αMeS]SK([PEG2′-PEG2′-γGlu-Lauroyl])LEK([PEG2′-PEG2′-γGlu-Lauroyl])EAA[αMeK]EFIK([PEG2′-PEG2′-γGlu-Lauroyl])FVVEGG-NH2 [SEQ ID NO: 447]
19.7 nM

Q. Requested field: cAMP Primary assay EC50, n2. Item: H[Aib]EGS[αMeF]TSDK([PEG2′-PEG2′-γGlu-Lauroyl])SSYLEK([PEG2′-PEG2′-γGlu-Lauroyl])EAA[αMeK]EFIAK([PEG2′-PEG2′-γGlu-Lauroyl])VVEGG-NH2 [SEQ ID NO: 455]
A. 19.8 nM

Q. Requested field: cAMP Primary assay EC50, n2. Item: H[Aib]EGS[αMeF]TSDV[αMeS]SYK([PEG2′-PEG2′-γGlu-Lauroyl])EK([PEG2′-PEG2′-γGlu-Lauroyl])EAA[αMeK]EFIK([PEG2′-PEG2′-γGlu-Lauroyl])FVVEGG-NH2 [SEQ ID NO: 451]
A. 19.5 nM
